assay_explanation: Fraction unbound in rat brain
Type: ADME, tissue-based

{"columns": ["molecular_string", "fraction unbound"],
 "data": [
  ["COc1cccc(C(=O)N[C@H]2C[C@@](N)(C(=O)O)[C@@H]3[C@@H](C(=O)O)[C@@H]32)c1", 1]
]}

====

pKi values by entry
tested_system: Metabotropic glutamate receptor 2 (Homo sapiens, UniProt Q14416)
Sequence (Q14416 whole entry): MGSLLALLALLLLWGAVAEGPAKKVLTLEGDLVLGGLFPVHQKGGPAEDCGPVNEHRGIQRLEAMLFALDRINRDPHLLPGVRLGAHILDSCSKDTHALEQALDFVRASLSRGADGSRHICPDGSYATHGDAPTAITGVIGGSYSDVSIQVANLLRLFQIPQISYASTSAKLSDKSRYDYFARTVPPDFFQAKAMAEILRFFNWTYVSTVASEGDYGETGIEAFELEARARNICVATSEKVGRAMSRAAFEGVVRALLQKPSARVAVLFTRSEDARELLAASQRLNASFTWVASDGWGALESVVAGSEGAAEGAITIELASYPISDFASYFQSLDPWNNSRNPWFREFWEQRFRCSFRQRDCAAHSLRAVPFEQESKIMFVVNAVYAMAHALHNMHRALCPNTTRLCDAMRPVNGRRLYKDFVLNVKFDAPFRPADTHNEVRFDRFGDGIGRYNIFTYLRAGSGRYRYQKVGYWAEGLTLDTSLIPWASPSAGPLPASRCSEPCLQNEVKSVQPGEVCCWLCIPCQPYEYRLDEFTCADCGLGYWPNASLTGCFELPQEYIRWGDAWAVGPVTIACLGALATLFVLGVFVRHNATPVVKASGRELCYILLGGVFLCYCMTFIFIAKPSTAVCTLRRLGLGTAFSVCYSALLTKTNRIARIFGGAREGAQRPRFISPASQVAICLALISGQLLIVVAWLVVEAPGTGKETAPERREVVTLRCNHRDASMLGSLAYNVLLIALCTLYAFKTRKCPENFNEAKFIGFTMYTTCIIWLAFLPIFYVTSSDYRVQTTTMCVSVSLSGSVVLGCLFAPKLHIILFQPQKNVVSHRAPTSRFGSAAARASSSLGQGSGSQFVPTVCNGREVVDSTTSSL
assay_explanation: Displacement of [3H]-LY459477 from recombinant human mGlu2 receptor expressed in HEK cell membranes after 90 mins by liquid scintillation counting
pKi: −log10 of the molar value.

{"columns": ["molecular_string", "pKi"],
 "data": [
  ["N[C@@]1(C(=O)O)C[C@H](NC(=O)c2cccc(F)c2)[C@H]2[C@H](C(=O)O)[C@H]21", 6.67],
  ["CC(=O)N[C@H]1C[C@@](N)(C(=O)O)[C@@H]2[C@@H](C(=O)O)[C@@H]21", 6.05],
  ["N[C@@]1(C(=O)O)C[C@H](NC(=O)c2ccc(O)cc2)[C@H]2[C@H](C(=O)O)[C@H]21", 7.26],
  ["N[C@@]1(C(=O)O)C[C@H](NC(=O)c2ccccc2Cl)[C@H]2[C@H](C(=O)O)[C@H]21", 6.41],
  ["N[C@@]1(C(=O)O)C[C@H](NC(=O)c2cccc(Cl)c2)[C@H]2[C@H](C(=O)O)[C@H]21", 7.07],
  ["N[C@@]1(C(=O)O)C[C@H](NC(=O)c2ccccc2F)[C@H]2[C@H](C(=O)O)[C@H]21", 6.66]
]}
